Let's look at some compounds and their measured CC50 at 3 days.
assay: in vitro; type: cell-based; details: human, HepG2 or HepG2.117 cells, ATPlite, 3-days incubation (not marked with *), mean value
QUANTITY KIND: CC50 at 3 days

compound="Cc1noc2cc(-n3c(NC(C)C)nc4c(c3=O)C[C@@H](C)N(C(=O)c3ccc(Cl)c(Cl)c3)C4)ccc12 [Compound C395]" quantity_kind="CC50 at 3 days" result="> 50 µM"
compound="CNC(=O)c1ccc(-n2c(NC(C)C)nc3c(c2=O)C[C@@H](C)N(C(=O)c2ccc4c(c2)[nH]c(=O)n4C)C3)cc1 [Compound C510]" quantity_kind="CC50 at 3 days" result="> 50 µM"
compound="CNC(=O)[C@H]1CC[C@H](n2c(N[C@@H](C)c3ccc(OC(F)(F)F)cc3)nc3c(c2=O)C[C@@H](C)N(C(=O)c2ccc(Cl)c(Cl)c2)C3)CC1 [Compound C632]" quantity_kind="CC50 at 3 days" result="6.2 µM"
compound="CNC(=O)c1ccc(-n2c(O[C@@H](C)C(C)C)nc3c(c2=O)C[C@@H](C)N(C(=O)c2ccc(Cl)c(Cl)c2)C3)cc1 [Compound C446]" quantity_kind="CC50 at 3 days" result="27.6 µM"
compound="CNC(=O)c1ccc(-n2c(NC(C)C)nc3c(c2=O)C[C@@H](C)N(C(=O)c2cc4c(C)c(F)ccc4[nH]2)C3)cc1 [Compound C570]" quantity_kind="CC50 at 3 days" result="24.5 µM"
compound="CNC(=O)c1ccc(-n2c(NC(C)C)nc3c(c2=O)C[C@@H](C)N(C(=O)c2cc(Br)cc(C(F)(F)F)c2)C3)cc1 [Compound C602]" quantity_kind="CC50 at 3 days" result="> 25 µM"
compound="CNC(=O)c1ccc(-n2c(NCc3ccccc3-n3ccnc3)nc3c(c2=O)C[C@@H](C)N(C(=O)c2ccc(Cl)c(Cl)c2)C3)cc1 [Compound C485]" quantity_kind="CC50 at 3 days" result="24.9 µM"
compound="CC(C)Nc1nc2c(c(=O)n1-c1ccc(-n3cccn3)cc1Cl)C[C@@H](C)N(C(=O)c1ccc(Cl)c(Cl)c1)C2 [Compound C404]" quantity_kind="CC50 at 3 days" result="> 50 µM"
compound="C[C@H](Nc1nc2c(c(=O)n1-c1ccc(-n3cccn3)cc1)C[C@@H](C)N(C(=O)c1ccc(Cl)c(Cl)c1)C2)c1ccc(OC(F)(F)F)cc1 (single isomer, unassigned) [Compound C463b]" quantity_kind="CC50 at 3 days" result="> 50 µM"
compound="CNC(=O)c1ccc(-n2c(N[C@@H](C)C3CCC3)nc3c(c2=O)C[C@@H](C)N(C(=O)c2ccc(Cl)c(Cl)c2)C3)cc1 (single isomer, unassigned) [Compound C406b]" quantity_kind="CC50 at 3 days" result="24.5 µM"
compound="COC(=O)c1ccc(-n2c(NC(C)CCCCO)nc3c(c2=O)C[C@@H](C)N(C(=O)c2ccc(Cl)c(Cl)c2)C3)cc1OC (some centres unmarked) [Compound C670]" quantity_kind="CC50 at 3 days" result="> 50 µM"
compound="CC(=O)Nc1ccc(-n2c(N[C@H](C)c3ccc4[nH]ncc4c3)nc3c(c2=O)C[C@@H](C)N(C(=O)c2ccc(Cl)c(Cl)c2)C3)cc1 (single isomer, unassigned) [Compound C462a]" quantity_kind="CC50 at 3 days" result="> 50 µM"
compound="CNC(=O)c1ccc(-n2c(NC(C)(C)c3ccccc3)nc3c(c2=O)C[C@@H](C)N(C(=O)c2ccc(Cl)c(Cl)c2)C3)cc1 [Compound C407]" quantity_kind="CC50 at 3 days" result="18 µM"
compound="CNC(=O)c1ccc(-n2c(OC(C)C)nc3c(c2=O)C[C@@H](C)N(C(=O)c2ccc(Cl)c(Cl)c2)C3)c(Cl)c1 [Compound C403a]" quantity_kind="CC50 at 3 days" result="36.7 µM"
compound="CNC(=O)c1ccc(-n2c(NCc3nnc(C(C)C)[nH]3)nc3c(c2=O)C[C@@H](C)N(C(=O)c2ccc(Cl)c(Cl)c2)C3)cc1 [Compound C545]" quantity_kind="CC50 at 3 days" result="> 50 µM"
compound="C[C@@H]1Cc2c(nc(N[C@H](C)c3ccc(OC(F)(F)F)cc3)n(-c3ccc(-n4cccn4)cc3)c2=O)CN1C(=O)c1ccc(Cl)c(Cl)c1 (single isomer, unassigned) [Compound C463a]" quantity_kind="CC50 at 3 days" result="> 50 µM"
compound="CNC(=O)c1ccc(-n2c(N[C@H](C)c3cnnn3C)nc3c(c2=O)C[C@@H](C)N(C(=O)c2ccc(Cl)c(Cl)c2)C3)cc1 [Compound C517]" quantity_kind="CC50 at 3 days" result="> 50 µM"
compound="CNC(=O)c1ccc(-n2c(NC(C)C)nc3c(c2=O)C[C@@H](C)N(C(=O)c2cc(C)cc(F)c2)C3)cc1 [Compound C492]" quantity_kind="CC50 at 3 days" result="> 50 µM"
compound="CNC(=O)c1ccc(-n2c(NC34C5C6C7C5C3C7C64)nc3c(c2=O)C[C@@H](C)N(C(=O)c2ccc(Cl)c(Cl)c2)C3)cc1 (some centres unmarked) [Compound C461]" quantity_kind="CC50 at 3 days" result="> 50 µM"
compound="CNC(=O)c1ccc(-n2c(NC(C)C)nc3c(c2=O)C[C@@H](C)N(C(=O)c2ccc(Br)cc2F)C3)cc1 [Compound C511]" quantity_kind="CC50 at 3 days" result="> 50 µM"
compound="CNC(=O)c1ccc(-n2c(NC3COC(C4CC4)C3)nc3c(c2=O)C[C@@H](C)N(C(=O)c2ccc(Cl)c(Cl)c2)C3)cc1 (some centres unmarked) [Compound C549]" quantity_kind="CC50 at 3 days" result="> 50 µM"
compound="CNC(=O)c1ccc(-n2c(NCCCc3nc(=O)[nH][nH]3)nc3c(c2=O)C[C@@H](C)N(C(=O)c2ccc(Cl)c(Cl)c2)C3)cc1 [Compound C599]" quantity_kind="CC50 at 3 days" result="> 50 µM"
compound="CNC(=O)c1ccc(-n2c(NCc3ccn(-c4ccc(F)cc4)n3)nc3c(c2=O)C[C@@H](C)N(C(=O)c2ccc(Cl)c(Cl)c2)C3)cc1 [Compound C465]" quantity_kind="CC50 at 3 days" result="22.6 µM"
